targetDesc: CIB1 and αIIb interaction (CIB1-GST : F-αIIb peptide) (Homo sapiens)
Construct: made in house; host or cells: BL-21 plus RIL cells (E. coli)
experimentDescription: FP assay, 1536-well qHTS format (primary and confirmatory screen)
Type: binding
statedConditions: confirmatory screen, qHTS curve class; negative sign = inhibitory curve
metric: CONFIRMATORY SCREEN Curve Class
Numbers only.

compound | CONFIRMATORY SCREEN Curve Class
Cc1ccc(S(=O)(=O)Nc2cnccc2C(=O)Nc2nc(-c3ccc(C)c(C)c3)cs2)cc1.O=C(O)C(F)(F)F | -1.4
Br.CCCCCCCCCCCCCCCC[N+](C)(C)C.[Br-] | -2.1

Value sought for every listed compound: CONFIRMATORY SCREEN Curve Class.
1. Cc1csc(CNc2ncnc3ccc(-c4ccc(CO)o4)cc23)n1.O=C(O)C(F)(F)F
2. O=C(O)C(F)(F)F.O=S(=O)(Nc1nc2n(n1)C(c1ccccc1)C=C(c1ccc(Cl)cc1)N2)c1ccccc1 (stereo not drawn)
3. Brc1c(Br)c(Br)c2[nH]nnc2c1Br [NCGC00092352-04, 4,5,6,7-tetrabromobenzotriazole, reference compound]
4. O=C(Nc1nc(-c2ccccc2)cs1)c1ccncc1NS(=O)(=O)c1ccccc1Cl.O=C(O)C(F)(F)F

-3
-2.2
-1.2
-1.1

Please look at the items below and tell me CONFIRMATORY SCREEN Curve Class for each one, in order.
1. CC(=O)Oc1cccc2c1C(=O)c1c(OC(C)=O)cc(C(=O)O)cc1C2=O
2. O=C(O)C(F)(F)F.OCc1ccc(-c2ccc3ncnc(NCc4nccs4)c3c2)o1
3. COc1ccccc1C(=O)c1no[n+]([O-])c1C(=O)c1ccccc1OC.O=C(O)C(F)(F)F

1. -1.4
2. -3
3. -1.2

====

targetDesc: CIB1 and αIIb interaction (CIB1-GST : F-αIIb peptide) (Homo sapiens, UniProt Q99828)
Construct: made in house; host or cells: BL-21 plus RIL cells (E. coli)
Sequence (Q99828 1-191): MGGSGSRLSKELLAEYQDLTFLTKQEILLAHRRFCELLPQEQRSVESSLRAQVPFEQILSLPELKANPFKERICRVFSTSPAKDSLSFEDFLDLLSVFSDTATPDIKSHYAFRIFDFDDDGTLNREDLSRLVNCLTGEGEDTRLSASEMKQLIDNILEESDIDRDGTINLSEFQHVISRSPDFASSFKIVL
experimentDescription: FP assay, 1536-well qHTS format (primary and confirmatory screen)
Type: binding
statedConditions: qHTS primary screen hits, Table S2; read-out: IC50
metric: IC50 (µM)
Give bare numbers, in µM.

Examples from the recorded data:
compound | metric | measured
C[n+]1c2cc(N)ccc2cc2ccc(N)cc21 [NCGC00178831-03] | IC50 | 1.1
CCC(OC(=O)c1ccc(S(C)(=O)=O)c([N+](=O)[O-])c1)C(=O)NC1C2CC3CC(C2)CC1C3 (stereo not shown) [NCGC00188536-01] | IC50 | 1.4
CCN1C(=O)c2ccccc2[S+]([O-])c2ccc(C(=O)NCc3cccc(F)c3)cc21 (stereo not shown) [NCGC00241657-01] | IC50 | 39.8

What does the data say about its IC50? Entry: Cc1cc(Cl)ccc1-n1c(CCC(=O)O)ccc1-c1cccs1 [NCGC00100435-03]
50.1

====

targetDesc: GST-CIB1 : F-scrambled peptide (Homo sapiens)
Construct: made in house; host or cells: BL-21 plus RIL cells (E. coli)
experimentDescription: FP scrambled-peptide counter screen, 384-well format
Format: binding
statedConditions: F-scrambled peptide; read-out: 384-well COUNTERSCREEN IC50
Exercise: for every item that follows, state its recorded pIC50.
Numbers only, as −log10 of the molar value.

Look over these answered cases.
compound | pIC50
CCc1oc2ccccc2c1C(=O)c1cc(I)c(O)c(I)c1 | 5.00
Cc1cc(=O)oc2cc(SC3=NS(=O)(=O)c4ccccc43)ccc12 | 5.00
COc1cc(C(=O)NS(=O)(=O)c2ccccc2C)ccc1Cc1cn(C)c2ccc(NC(=O)OC3CCCC3)cc12 | 6.00
O=C(O)C(F)(F)F.O=S(=O)(Nc1nc2n(n1)C(c1ccccc1)C=C(c1ccc(Cl)cc1)N2)c1ccccc1 (stereo not drawn) | 4.30
COc1ccccc1S(=O)(=O)Nc1cnccc1C(=O)Nc1nc(-c2ccccc2)cs1.O=C(O)C(F)(F)F | 5.00

Quick request: pIC50 for each listed item, please.
1. Br.CCCCCCCCCCCCCCCC[N+](C)(C)C.[Br-]
2. O=c1sc2ccccc2c(O)c1C1CC(c2ccc(-c3ccc(Br)cc3)cc2)Cc2ccccc21 (stereo not drawn)
3. Cc1ccc(S(=O)(=O)Nc2cnccc2C(=O)Nc2nc(-c3cccc(C)c3)cs2)cc1.O=C(O)C(F)(F)F
4. Nc1c(Cc2ccc(S(N)(=O)=O)cc2)c(-c2cccc(-c3ccccc3)c2)nn1-c1nc(C(=O)O)cs1.O=C(O)C(F)(F)F
5. CC(O)c1ccc(-c2ccc3ncnc(NCc4nccs4)c3c2)o1.O=C(O)C(F)(F)F (stereo not drawn)

1: 5.60; 2: 4.60; 3: 4.85; 4: 5.80; 5: 4.75

// returns reported pIC50 for input CCC(=O)NC(c1cccs1)c1cc([N+](=O)[O-])c2cccnc2c1O (stereo not drawn)
4.75

====

targetDesc: CIB1 and αIIb interaction (CIB1-GST : F-αIIb peptide) (Homo sapiens, UniProt Q99828)
Construct: made in house; host or cells: BL-21 plus RIL cells (E. coli)
experimentDescription: FP assay, 1536-well qHTS format (primary and confirmatory screen)
Format: binding
statedConditions: confirmatory screen
Answer each item with its documented Efficacy (%) (confirmatory screen).
Numbers only, in %.

compound | targetDesc | unitsOfMeasure | Efficacy (%) (confirmatory screen)
Cc1cc2nc3ccc(N(C)C)cc3[s+]c2cc1N.Cl.[Cl-] | CIB1 and αIIb interaction (CIB1-GST : F-αIIb peptide) (Homo sapiens, UniProt Q99828) | % | -72
Cc1ccc(S(=O)(=O)Nc2cnccc2C(=O)Nc2ccc(-c3nnn[nH]3)cc2)cc1.O=C(O)C(F)(F)F | CIB1 and αIIb interaction (CIB1-GST : F-αIIb peptide) (Homo sapiens, UniProt Q99828) | % | -63
C=C1C(OC(=O)/C(C)=C\C)[C@@]23CCC4[C@@](C)(CCC[C@@]4(C)C(=O)O)C2CC[C@H]1C3OC(C)=O (stereo partly shown) | CIB1 and αIIb interaction (CIB1-GST : F-αIIb peptide) (Homo sapiens, UniProt Q99828) | % | -71
O=C(O)C(F)(F)F.Oc1cccc2c(-c3nnn[nH]3)ccnc12 | CIB1 and αIIb interaction (CIB1-GST : F-αIIb peptide) (Homo sapiens, UniProt Q99828) | % | -29
CC[C@@H](CO)NC(=O)[C@@H]1C=C2c3cccc4c3c(cn4C)C[C@H]2N(C)C1.O=C(O)/C=C\C(=O)O | CIB1 and αIIb interaction (CIB1-GST : F-αIIb peptide) (Homo sapiens, UniProt Q99828) | % | -88

Dear colleague, could you please provide Efficacy (%) (confirmatory screen) for the compounds listed below?
1. O=C(O)c1ccc(-n2cccc2/C=C2\SC(=O)N(Cc3cccc(Cl)c3)C2=O)cc1
2. C=CCNc1oc(-c2ccc(Cl)cc2)nc1C#N.O=C(O)C(F)(F)F

1: -109; 2: -72

====

targetDesc: CIB1 and αIIb interaction (CIB1-GST : F-αIIb peptide) (Homo sapiens)
Construct: made in house; host or cells: BL-21 plus RIL cells (E. coli)
experimentDescription: FP assay, 1536-well qHTS format (primary and confirmatory screen)
Assay type: binding
statedConditions: confirmatory screen; negative = inhibition
Quick rule: CONFIRMATORY SCREEN Efficacy (%) of at least -60% means rule met, below that means rule not met.

molecule | labelValue
O=c1oc2ccccc2c(O)c1C(CC(O)c1ccc(-c2ccc(Br)cc2)cc1)c1ccccc1 (centres unmarked) | rule met
O=c1sc2ccccc2c(O)c1C1CC(c2ccc(-c3ccc(Br)cc3)cc2)Cc2ccccc21 (centres unmarked) | rule met
CCOC(=O)c1ccc(O)c2ncc(-c3ccc(C(=N)N)cc3)cc12.O=C(O)C(F)(F)F | rule met
COc1cc(/C=C2/N=C(c3ccccc3)OC2=O)c(F)cc1OCc1ccccc1 | rule not met

hey, is CONFIRMATORY SCREEN Efficacy (%) for this one >= -60%? Cc1ccc(S(=O)(=O)Nc2cnccc2C(=O)Nc2nc(-c3cccc(C)c3)cs2)cc1.O=C(O)C(F)(F)F
rule not met

Quick check, CONFIRMATORY SCREEN Efficacy (%) >= -60%? CSC(Cc1ccc(Cl)cc1)C(=O)Nc1ccc(Cl)cc1C(=O)O.O=C(O)C(F)(F)F (centres unmarked)
rule met

In plain terms: is recorded CONFIRMATORY SCREEN Efficacy (%) at least -60% for S=C(SSC(=S)N1CCCCC1)N1CCCCC1 [NCGC00181776-02, dipentamethylenethiuram disulfide] ?
rule not met

Reported CONFIRMATORY SCREEN Efficacy (%) at or above -60%? CCc1oc2ccccc2c1C(=O)c1cc(I)c(O)c(I)c1
rule not met

Entry Cc1csc(CNc2ncnc3ccc(-c4ccc(CO)o4)cc23)n1.O=C(O)C(F)(F)F : is its CONFIRMATORY SCREEN Efficacy (%) no less than -60%?
rule not met

For this molecule, is measured CONFIRMATORY SCREEN Efficacy (%) -60% or higher? Cc1c(C)n(Cc2ccc(-c3ccccc3C(=O)O)cc2)c2ccc(C(=O)N[C@@H](C)c3ccc([N+](=O)[O-])cc3)cc12
rule met
